Assay: qHTS assay for MDR1-selective chemotherapeutics: Primary screen using the drug-selected MDR subline cells KB-V1; further: nearly all actives have a fitted effect of over 60% in size
Conditions: KB-V1 MDR cells viability, CellTiter-Glo, 72 h; series mostly up to 46.1 µM
The campaign covered roughly 400,000 compounds. About 13,000 (3.2%) were called active. Not shown: some 18% with an inconclusive outcome. The call rests on the fitted dose curve; in most records, active means well fitted cell-killing curve with a large enough effect; inconclusive means small, poorly fitted or top-dose-only effect, or effect the other way; inactive means flat fitted curve, though single readings scatter. The sample holds actives, similar compounds and a random draw of the others, so the mix is not that of the screen.
Outcomes: active, inactive

{"MOLECULE": "COc1cccc(-c2cnc(C(O)c3ccccc3OC)[nH]2)c1 (stereo unspecified)", "CLASS_ASSIGNMENT": "inactive"}
{"MOLECULE": "CC1CCCN(CC(=O)Nc2cc(Cl)ccc2Oc2ccccc2)C1 (stereo unspecified)", "CLASS_ASSIGNMENT": "inactive"}
{"MOLECULE": "CC(=O)Nc1ccc(SCC(=O)Nc2ccccc2Oc2ccccc2)cc1", "CLASS_ASSIGNMENT": "active"}
{"MOLECULE": "COc1ccc(CN(C)C(=O)CC(c2ccccc2)c2ccccc2)cc1", "CLASS_ASSIGNMENT": "inactive"}
{"MOLECULE": "O=C(CSc1ccccc1)Nc1cc(Cl)ccc1Oc1ccccc1", "CLASS_ASSIGNMENT": "active"}
{"MOLECULE": "CCOC(=O)N1CCN(C(=O)C[C@@H]2C[C@@]3(C(=O)OC)CCCCC=C3N(CCC3=CCCCC3)C2=O)CC1", "CLASS_ASSIGNMENT": "inactive"}
{"MOLECULE": "Cc1cc(C)cc(NC(=O)CSc2ccccc2)c1", "CLASS_ASSIGNMENT": "inactive"}
{"MOLECULE": "COc1ccc(C(CCN(Cc2ccc(OC)c(OC)c2)C(=O)CCl)c2ccccc2)cc1 (stereo unspecified)", "CLASS_ASSIGNMENT": "active"}
{"MOLECULE": "CSc1cccc(NC(=O)CSc2ccccc2)c1", "CLASS_ASSIGNMENT": "inactive"}
{"MOLECULE": "COc1ccc(COC(=O)NC(C(=O)O)c2ccccc2)cc1 (stereo unspecified)", "CLASS_ASSIGNMENT": "inactive"}
{"MOLECULE": "Cc1cccc(-n2ccnc2SCC(=O)Nc2cccc3ccccc23)c1C", "CLASS_ASSIGNMENT": "inactive"}
